test system: BT474 (human breast carcinoma); test: In vitro tumor cell proliferation assay (Cell Titer-Glo luminescent cell viability), BT474; format: cell-based; conditions: BT-474, 72 h, BT474 cells, 72 hours of drug exposure, ATP luminescence readout, read-out: IC50, anti-proliferative activity (inhibition of cell proliferation)
Measured IC50 by item

Requested field: IC50. Item: CS(=O)(=O)CCNCCn1cc2c(n1)CCc1c-2sc2ncnc(Nc3ccc(F)c(Cl)c3)c12 [Example 13]
≤ 5 µM

Try the compound CCN1CCC(CCn2cc3c(n2)CCc2c-3sc3ncnc(Nc4ccc(OCc5cccc(F)c5)c(Cl)c4)c23)CC1 [Example 254]
≤ 1 µM

Please give the result for CCc1nccn1CCn1cc2c(n1)CCc1c-2sc2ncnc(Nc3ccc(F)c(Cl)c3)c12 [Example 38] too.
≤ 5 µM

// repeat for CN1CCN(CC(=O)N2CCC(Cn3cc4c(n3)CCc3c-4sc4ncnc(Nc5ccc(OCc6cccc(F)c6)c(Cl)c5)c34)CC2)CC1 [Example 237] and report
≤ 1 µM

More entries:
Which IC50 reading was recorded for the compound CNCCn1cc2c(n1)CCc1c-2sc2ncnc(Nc3ccc(OCc4ccccn4)c(Cl)c3)c12 [Example 107] ?
≤ 1 µM

Please do the same for CC(C)N1CCC(n2cc3c(n2)CCc2c-3sc3ncnc(Nc4ccc(OCc5cccc(F)c5)c(Cl)c4)c23)CC1 [Example 227] as well.
≤ 1 µM

How about this compound: OC1CCN(CCn2ncc3c2CCc2c-3sc3ncnc(Nc4ccc5c(cnn5Cc5cccc(F)c5)c4)c23)C1 (stereo not shown) [Example 299]
≤ 1 µM

These measurements were taken from patent US8207172B2.
